Data provenance: paper PMC11396972

Test: Host cell toxicity assay, MTT
Format: cell-based
Conditions: African green monkey, Vero cells (uninfected); Vero cells, 48 h, MTT; read-out: CC50 (μM) cytotoxicity on Vero cells
REPORTED METRIC: CC50 at 48 h

Problem: What does the record list as CC50 at 48 h for "Cc1ncc([N+](=O)[O-])n1CCOC(=O)c1ccc(Nc2nnc(-c3ccc(Cl)cc3)s2)cc1" ?
Result: > 500 µM

Problem: May I ask what CC50 at 48 h has been recorded for CC1CS(=O)(=O)CCN1/N=C/c1ccc([N+](=O)[O-])o1 (centres unmarked) [Nfx, Nifurtimox, reference compound] ?
Result: > 90 µM

Problem: Any idea what CC50 at 48 h was measured for "Cc1ncc([N+](=O)[O-])n1CCOC(=O)c1ccc(Nc2nnc(-c3cccc(Cl)c3)s2)cc1" ?
Result: > 500 µM

Problem: Query: CC50 at 48 h; subject: C[C@@H]1[C@H](O)[C@@H](C)/C=C/C=C/C=C/C=C/C=C/C=C/C=C/[C@H](O[C@@H]2O[C@H](C)[C@@H](O)[C@H](N)[C@@H]2O)C[C@@H]2O[C@](O)(C[C@@H](O)C[C@@H](O)[C@H](O)CC[C@@H](O)C[C@@H](O)CC(=O)O[C@H]1C)C[C@H](O)[C@H]2C(=O)O [Aph, Amphotericin B, reference compound]
Result: > 250 µM

Problem: Data request, read-out CC50 at 48 h, for "Cc1ncc([N+](=O)[O-])n1CCOC(=O)c1ccc(Nc2nnc(-c3ccccc3)s2)cc1"
Result: > 500 µM
